molecular target: β5c subunit of isolated human 20S proteasome (Homo sapiens); construct: purchased Enzo Life Sciences; test: Proteasome inhibition assay (20 S Proteasome Assay Kit, Suc‐LLVY‐AMC); assay type: biochemical; conditions: c=100 nM; read-out: Rel. Inhibition β5c
MEASURED QUANTITY: inhibition at 0.1 µM (%)

Below are worked cases with known answers.
- Cc1cc(C)c(Oc2ccccc2)cc1NC(=O)C(=O)[C@H](CC(C)C)NC(=O)[C@H](CC(C)C)NC(=O)[C@H](CC(C)C)NC(=O)OCc1ccccc1: 46
- Cc1ccc(NC(=O)C(=O)[C@H](CC(C)C)NC(=O)[C@H](CC(C)C)NC(=O)[C@H](CC(C)C)NC(=O)OCc2ccccc2)c(C)c1Oc1ccccc1: 20
- CC(C)C[C@@H](C=O)NC(=O)[C@H](CC(=O)OC(C)(C)C)NC(=O)[C@H](CC(C)C)NC(=O)c1cc(Cl)ccc1Cl: 64

I = CC(C)C[C@@H](C=O)NC(=O)[C@H](CC(C)C)NC(=O)[C@H](CC(C)C)NC(=O)c1cc(Cl)ccc1Cl
II = Cc1cc(C)c(Oc2ccccc2)cc1NC(=O)C(=O)[C@H](CC(C)C)NC(=O)[C@H](CC(=O)OC(C)(C)C)NC(=O)[C@H](CC(C)C)NC(=O)c1cc(Cl)ccc1Cl
III = Cc1ccc(NC(=O)C(=O)[C@H](CC(C)C)NC(=O)[C@H](CC(C)C)NC(=O)[C@H](CC(C)C)NC(=O)OCc2ccccc2)cc1Oc1ccccc1
List items by inhibition at 0.1 µM in falling order. Rank them, then answer with their labels in that order. I, III, II
